B1: RIPK4 (parent)
chain: VIDLFDEQGLSALHLAAQGRHAQT

variants of: B1; experiment: protein stability index of a GFP-peptide fusion (GPS, HEK-293T) (PSI 1-6); higher = more stable; conditions: c terminus: a fixed tail appended;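 also: lentivirally expressed fusions sorted by FACS into six bins by GFP to DsRed ratio, PSI derived from sequencing read proportions per bin multiplied by bin number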
reported_metric: protein stability index
Please state the value as a number alone, without comment.

[[record]]
sequence_input = "VIDLFDEQGLSALPLAAQGRHAQT [H14P]"
quantitative_result = 3.54


Input line: Given VIDLFDEQGLSALLLAAQGRHAQT [H14L] , state its recorded protein stability index.
Output line: 2.33

Input line: Which protein stability index is reported for this variant? VIDLFDEQGLSALHLAAQGRHANT [Q23N]
Output line: 2.84

Input line: State the recorded protein stability index for this entry: VIDLFSEQGLSALHLAAQGRHAQT [D6S]
Output line: 2.57

Input line: Any idea what protein stability index was measured for VIDFFDEQGLSALHLAAQGRHAQT [L4F] ?
Output line: 2.66
